These data points were gathered from paper PMC4585259.

# Target Or Test System: rNav1.2 sodium channels (Rattus norvegicus)
# Construct: host or cells: HEK-293
# Sequence (P04775 whole entry): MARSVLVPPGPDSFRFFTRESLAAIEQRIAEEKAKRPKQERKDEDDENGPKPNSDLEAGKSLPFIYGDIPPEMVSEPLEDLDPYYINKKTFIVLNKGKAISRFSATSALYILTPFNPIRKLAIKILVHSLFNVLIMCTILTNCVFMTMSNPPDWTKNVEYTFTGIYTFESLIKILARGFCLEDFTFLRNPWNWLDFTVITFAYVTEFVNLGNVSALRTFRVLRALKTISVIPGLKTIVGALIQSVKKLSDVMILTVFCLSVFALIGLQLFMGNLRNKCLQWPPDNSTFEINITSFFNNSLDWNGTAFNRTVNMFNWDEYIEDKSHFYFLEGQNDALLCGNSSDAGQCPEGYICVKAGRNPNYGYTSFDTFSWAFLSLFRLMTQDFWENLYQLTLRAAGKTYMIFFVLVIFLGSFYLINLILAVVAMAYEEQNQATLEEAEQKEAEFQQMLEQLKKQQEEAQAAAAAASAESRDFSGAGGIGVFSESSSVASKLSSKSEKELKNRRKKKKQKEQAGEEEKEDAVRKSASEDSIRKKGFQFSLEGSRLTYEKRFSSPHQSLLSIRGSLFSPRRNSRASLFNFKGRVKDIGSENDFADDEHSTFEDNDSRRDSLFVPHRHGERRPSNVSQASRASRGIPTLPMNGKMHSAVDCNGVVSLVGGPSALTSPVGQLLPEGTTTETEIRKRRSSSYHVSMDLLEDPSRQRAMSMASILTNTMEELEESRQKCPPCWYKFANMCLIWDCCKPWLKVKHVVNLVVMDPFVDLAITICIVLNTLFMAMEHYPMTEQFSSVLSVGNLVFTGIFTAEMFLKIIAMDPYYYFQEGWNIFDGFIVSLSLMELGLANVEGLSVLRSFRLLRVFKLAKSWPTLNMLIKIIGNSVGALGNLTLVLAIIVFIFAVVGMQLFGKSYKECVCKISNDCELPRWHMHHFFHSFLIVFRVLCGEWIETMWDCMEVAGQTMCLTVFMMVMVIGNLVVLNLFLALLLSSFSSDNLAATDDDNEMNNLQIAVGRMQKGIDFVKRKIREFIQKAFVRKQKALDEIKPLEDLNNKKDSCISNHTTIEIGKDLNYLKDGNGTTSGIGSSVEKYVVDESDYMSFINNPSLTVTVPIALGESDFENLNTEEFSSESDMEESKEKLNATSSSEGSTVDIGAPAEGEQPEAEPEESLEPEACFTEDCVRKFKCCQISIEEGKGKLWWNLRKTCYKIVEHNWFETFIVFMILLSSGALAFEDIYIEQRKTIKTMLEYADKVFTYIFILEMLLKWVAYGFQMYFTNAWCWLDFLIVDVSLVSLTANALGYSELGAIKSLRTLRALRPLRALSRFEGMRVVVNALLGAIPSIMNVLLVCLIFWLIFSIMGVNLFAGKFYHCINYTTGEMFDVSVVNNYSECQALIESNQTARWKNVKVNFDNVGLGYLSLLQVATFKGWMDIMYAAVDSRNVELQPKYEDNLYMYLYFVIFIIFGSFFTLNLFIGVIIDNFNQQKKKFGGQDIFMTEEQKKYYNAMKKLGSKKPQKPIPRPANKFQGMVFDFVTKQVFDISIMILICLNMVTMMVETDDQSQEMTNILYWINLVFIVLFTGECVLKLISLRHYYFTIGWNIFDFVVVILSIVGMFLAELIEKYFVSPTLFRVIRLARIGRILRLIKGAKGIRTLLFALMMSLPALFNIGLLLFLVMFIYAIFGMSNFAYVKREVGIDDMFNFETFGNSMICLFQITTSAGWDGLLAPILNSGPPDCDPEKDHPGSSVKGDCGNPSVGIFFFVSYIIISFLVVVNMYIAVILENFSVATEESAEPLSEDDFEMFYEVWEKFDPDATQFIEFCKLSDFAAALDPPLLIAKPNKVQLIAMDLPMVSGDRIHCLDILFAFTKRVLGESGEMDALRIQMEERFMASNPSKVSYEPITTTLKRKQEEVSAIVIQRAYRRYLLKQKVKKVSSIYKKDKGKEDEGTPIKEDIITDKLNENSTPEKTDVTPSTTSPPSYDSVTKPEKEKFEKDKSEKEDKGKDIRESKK
# Assay Explanation: QPatch automated patch clamp, inhibition of sodium currents evoked by 5 Hz trains at three extracellular pH values
# Type: cell-based
# Conditions: pH=7.3; cc 100 mM
Assay Metric: Reversibility
Reply briefly: the number, and no unit.

IN: Give the observed Reversibility of COc1ccc(C(CN(C)C)C2(O)CCCCC2)cc1 (centres unmarked) for rNav1.2 sodium channels (Rattus norvegicus).
OUT: 0.73

IN: Give the observed Reversibility of COc1ccccc1OCC(O)CN1CCN(CC(=O)Nc2c(C)cccc2C)CC1 (centres unmarked) for rNav1.2 sodium channels (Rattus norvegicus).
OUT: 0.88

IN: Give the observed Reversibility of Nc1c(Br)cc(Br)cc1CN[C@H]1CC[C@H](O)CC1 for rNav1.2 sodium channels (Rattus norvegicus).
OUT: 0.78

IN: Give the observed Reversibility of CCCCN1CCCCC1C(=O)Nc1c(C)cccc1C (centres unmarked) for rNav1.2 sodium channels (Rattus norvegicus).
OUT: 0.71

IN: Give the observed Reversibility of CC12CC3CC(C)(C1)CC(N)(C3)C2 [memantine] for rNav1.2 sodium channels (Rattus norvegicus).
OUT: 0.92
